System: Jurkat
Experiment: Inhibition of cell proliferation of human Jurkat cells incubated for 72 hrs by Alamar blue assay
Type: functional, cell-based
pIC50: −log10 of the molar value.
parameter.measured: pIC50

Summary for this compound, O=C(/C=C/c1cnc2ccccc2c1)c1ccncc1 : pIC50 is < 5.40

* * *

Assay: Solubility in Cremophore:EToH:saline solution in normal conditions using Amber vials after 4 hrs by HPLC method (reference value: 1 mg/ml at 0 hrs)
Type: physicochemical
parameter.measured: solubility at 4 h (µg/mL)
Your answer should be a plain number; it is taken to be in µg/mL.

The reported value for Cl.O=C(/C=C/c1ccc2cccc(O)c2n1)c1ccncc1 in terms of solubility at 4 h is 1000
